# protocol: CR6086 pharmacokinetics in rats
# Format: in vivo, rat
# conditionContext: rat, plasma; oral, 1 mg/kg

| substanceSmiles | Cmax |
| --- | --- |
| O=C([O-])c1ccc(C2(NC(=O)[C@H]3CC4(CCN3Cc3ccc(C(F)(F)F)cc3)CC4)CC2)cc1.[Na+] | 1250 ng/mL |

----------
# protocol: CR6086 pharmacokinetics in rats
# Type: in vivo, rat
# conditionContext: rat, plasma; oral, 15 mg/kg; median

| substanceSmiles | Tmax |
| --- | --- |
| O=C([O-])c1ccc(C2(NC(=O)[C@H]3CC4(CCN3Cc3ccc(C(F)(F)F)cc3)CC4)CC2)cc1.[Na+] | 30 min |
